Reference for the values: PubChem BioAssay AID1645848

Entries and their measured solubility kinetic follow.
- experimental-parameters: buffer; pH 7.4; 6.0 h; 150.0 µM

| molecule | units-text | op | solubility kinetic |
| --- | --- | --- | --- |
| Fc1ccc(Cl)cc1-c1nc(Nc2ccncc2)c2nccnc2n1 | µg/mL | = | 1.6 |
| O=C([C@H](Cc1ccc(O[S+](=O)([O-])c2cccc3cnccc23)cc1)N[S+](=O)([O-])c1cccc2cnccc12)N1CCN(Cc2ccccc2)CC1 | µg/mL | < | 1 |
| COC1C(OC(=O)c2ccc(C)[nH]2)C(O)C(Oc2ccc3c(O)c(NC(=O)c4ccc(O)c(CC=C(C)C)c4)c(=O)oc3c2Cl)OC1(C)C (stereo not given) | µg/mL | > | 100 |
| Cc1c(-c2cccc(NC(=O)c3ccc(F)c(F)c3)c2)nc2ncccn12 | µg/mL | = | 7.47 |
| O=c1[nH]cnc2nc[nH]c12 | µg/mL | = | 8.8 |
| COc1ccc2oc(NC3=NC(c4[nH]ncc4Cl)C4=C(CCCC4=O)N3)nc2c1 (stereo not given) | µg/mL | = | 11.2 |
| COc1ccc2[nH]cc(CCNC(=O)c3cnn(-c4ccc(C)cc4)c3C3CCN(C(=O)OC(C)(C)C)CC3)c2c1 | µg/mL | = | 1.56 |
| CCCc1cc(=O)oc2c3c(c4c(c12)OC(C)(C)C=C4)OC(C)C(C)C3O (stereo not given) | µg/mL | < | 1 |
| COc1ccc2c(c1)N(C[C@H](C)CN(C)C)c1ccccc1S2 | µg/mL | > | 48 |
| CCNC(=O)c1ccc(-c2ccc3ncnc(NCC4CCCO4)c3c2)o1 (stereo not given) | µg/mL | = | 25 |
| O=C(Nc1nc(-c2ccccc2)cs1)c1ccncc1NS(=O)(=O)c1cccc(Cl)c1 | µg/mL | < | 1 |
| COc1ccc(C2=Nn3c([n+](C)c4ccccc43)SC2)cc1.[Br-] | µg/mL | > | 46 |
| O=C1Nc2ccc(I)cc2/C1=C/c1cc(Br)c(O)c(Br)c1 | µg/mL | < | 1 |
| Cc1ccc(N2CCC(CNc3nc(-c4ccccc4C(C)C)ncc3F)CC2)cn1 | µg/mL | = | 7.65 |
| Cn1ccc2cc(-c3csc(N4CCC(C(N)=O)CC4)n3)ccc21 | µg/mL | = | 32.9 |
| C/C=C1/CN2CC[C@@]34c5ccccc5N(C)[C@@H]3[C@@H]2C[C@@H]1[C@H]4C(=O)OC | µg/mL | > | 33 |
| N#Cc1ccc(S(=O)(=O)Nc2cnccc2C(=O)Nc2nc(-c3ccccc3)cs2)cc1 | µg/mL | = | 6.96 |
| Cc1cccc(-n2cnc3cc(C(=O)N4CCCCC4)ccc32)c1 | µg/mL | > | 47 |
| O=[N+]([O-])c1ccc(-c2nc(Nc3ccc(F)c(F)c3)c3ccccc3n2)cc1 | µg/mL | < | 1 |
| CC(=O)c1c(C)[nH]c(C(=O)Nc2cccc([S+](=O)([O-])Nc3cccnc3)c2)c1C | µg/mL | > | 61 |

---

- experimental-parameters: buffer; pH 7.4; 6.0 h; 150.0 µM
readout-type: log10(solubility kinetic) (log10 of the value in µg/mL)

| molecule | log10(solubility kinetic) |
| --- | --- |
| N#Cc1cccc(S(=O)(=O)Nc2cnccc2C(=O)Nc2nc(-c3ccccc3)cs2)c1 | 1.54 |
| Cc1cc(C)c(CNC(=O)c2nc(-c3ccc(CN(C)C)cc3)cc3c2ccn3C(C)C)c(=O)[nH]1 | 1.61 |
| NC(=O)C1CCN(c2nccc(-c3ccc(Br)cc3)n2)CC1 | 0.73 |
| O=C(NC1CCCc2c1cnn2-c1cccc(O)c1)c1ccccn1 (configuration not stated) | 1.60 |
| Cc1ccc(NC(=O)N(Cc2cn(C)c3ccccc23)C2CCCCC2)cc1C | 0.37 |
| COc1c(Cl)cc2c([nH]c3cnccc32)c1NC(=O)c1cccnc1C | 0.78 |
| O=C1CCCC2=C1C(c1[nH]ncc1Cl)N=C(Nc1nc3cc(F)ccc3o1)N2 (configuration not stated) | 0.50 |
| COc1ccc(NC(=O)c2[nH]c(C)c(C(C)=O)c2C)cc1[S+](=O)([O-])Nc1ccccc1C#N | 1.75 |
| NC(=O)C1CCN(c2ncc(-c3ccc4c(c3)OCCO4)s2)CC1 | 0.66 |
| COc1ccc(CN2C(=O)[C@@H]3C[C@@H](CN3Cc3cccs3)Oc3ccccc32)cc1 | 0.40 |
| O=c1[nH]c(N2CCOCC2)nc2c1CCN(Cc1cc(Cl)ccc1F)CC2 | 1.46 |
| CCCCn1cnc2cc(NCc3ccc(OCC)cc3)ccc21 | 1.00 |
| CC(=O)N[C@H]1CN(C2CCN(c3ccc(F)cc3C)CC2)C[C@@H]1C1CC1 | 1.31 |
| CC(C)(C)CC(C)(C)c1ccc(O)cc1 | 0.32 |
| O=C(Nc1cccc(C(F)(F)F)c1)C1=CCN(Cc2ccc(F)cc2)CC1 | 1.42 |
| COc1cccc(CNc2ccc(S(=O)(=O)Nc3nccs3)cc2)c1 | 1.43 |
| CCc1ccc(CNc2ccc3c(c2)ncn3C(C)(C)C)cc1 | 1.03 |
| COc1cccc(CNc2ccc(S(=O)(=O)Nc3ccc(C)nc3)cc2)c1O | 1.22 |
| Oc1ccc(CNc2ccccc2F)c2cccnc12 | 0.64 |
| CN(C)C(=O)C1CCN(c2nc(-c3ccc(Br)cc3)cs2)CC1 | 0.26 |

---

- experimental-parameters: buffer; pH 7.4; 6.0 h; 150.0 µM
readout-type: solubility kinetic (µg/mL)

| compound | op | data-value |
| --- | --- | --- |
| OCc1ccc(-c2cc3c(ccn3Cc3cccnc3)c(C3=CCOCC3)n2)cc1 | = | 54.9 |
| COc1cccc(C(=O)Nc2nc(-c3nnn(-c4cc(C)ccc4C)c3C)ns2)c1 | = | 1.2 |
| CCOc1ccc(NC(=O)c2ccc(F)c(S(=O)(=O)N(CC)Cc3ccccc3)c2)cc1 | < | 1 |
| COCCNC(=O)[C@H]1C[C@H](Oc2ccccc2)CN1Cc1ccc2[nH]ccc2c1 | = | 17.1 |
| Cc1ccccc1S(=O)(=O)N1CCc2cc(-c3nc(NC(=O)Cc4ccc5c(c4)OCO5)sc3C)ccc21 | < | 1 |
| CNC(=O)c1ccc(-c2cnc3cnc(C(=O)N(C)c4ccc(Cl)cc4)cn23)cc1 | > | 62 |
| CC1=Nc2cc(C(=O)NCCc3ccccc3)ccc2Sc2c(C)ccc(C)c21 | < | 1 |
| CC(=O)Nc1ncc(S(=O)(=O)Nc2cnccc2C(=O)Nc2nc(-c3ccccc3)cs2)s1 | = | 56.1 |
| CCCCOc1ccccc1C(=O)Nc1ccccc1C(=O)Nc1cccc(S(=O)(=O)C(F)(F)F)c1 | < | 1 |
| COc1cc(Cl)c(C)cc1NS(=O)(=O)c1c(C)nc2sccn2c1=O | < | 1 |
| O=S(=O)(Nc1ccc2ccccc2c1)c1ccc(NCc2ccc(Br)cc2O)cc1 | < | 1 |
| CN(C)C(=O)c1nc(-c2ccc(Cl)cc2Cl)c2cnccn12 | > | 59 |
| N#C/C(=C\c1ccc(-c2ccc(C(=O)O)cc2)o1)c1nc2ccccc2[nH]1 | < | 1 |
| COc1ccc(Nc2ncc(C(=O)Nc3cccc(Cl)c3)c3ccccc23)cc1 | < | 1 |
| Cc1nc(Nc2ncc(C(=O)Nc3c(C)cccc3Cl)s2)cc(N2CCN(CCO)CC2)n1 | = | 25.6 |
| NC(=O)COc1ccc(C2CC(=O)Nc3n[nH]c(Nc4ccccc4)c32)cc1 (stereo not given) | = | 41.7 |
| COc1ccc(CN(C2CCCCC2C)S(=O)(=O)c2ccc(S(=O)(=O)N(C)C)cc2)cc1OC (stereo not given) | < | 1 |
| O=C(Cn1ccn2nc3c(c2c1=O)CCCCC3)Nc1ccc2c(c1)OCO2 | < | 1 |
| Cc1cn2c(-c3cn[nH]c3)cnc2c(Nc2ccc(C(=O)N3CCNCC3)cc2F)n1 | = | 13.4 |
| Cc1noc(C)c1-c1cc2c(cc(C)n2C)c(-c2cnn(C)c2)n1 | = | 15.2 |
| Cc1ccc2[nH]c(-c3ccccc3)cc(=O)c2c1 | = | 3.41 |
| CCOC(=O)c1ccc(NC(=O)CSc2nc3c(cc2C#N)N2CCC3CC2)cc1 | = | 1.15 |
| COc1cccc(CNc2ccc(S(=O)(=O)Nc3nccs3)cc2)c1OC | = | 3.6 |
| Fc1ccc(Nc2nc(-c3ccncc3)ncc2-c2ccccc2)cc1F | < | 1 |
| Cc1cnc(-c2ccccc2C2COC2)nc1NCc1ccc(-n2ccnn2)cc1 | > | 59 |
| N#CC1CCN(c2nc(-c3ccc(Br)cc3)cs2)CC1 | = | 1.46 |
| CNC(=O)C1CCN(c2nc(-c3ccc(Br)cc3)cs2)CC1 | = | 3.67 |
| O=C(Nc1ccccc1O)c1ccc(NC(=O)C2CC2)cc1 | = | 1.75 |
| FC(F)(F)c1cccc(Nc2ccc(CNc3nc(-c4ccccc4C(F)(F)F)nc4ccccc34)cc2)c1 | < | 1 |
| Cc1nc2ccc(Nc3nc(-c4ccncc4)nc4ccccc34)cc2s1 | < | 1 |
| Oc1cccc(-c2nc(N3CCOCC3)c3oc4ncccc4c3n2)c1 | < | 1 |
| C=C[C@]1(C)C[C@@H](OC(=O)CSC(C)(C)CNC(=O)[C@H](N)C(C)C)[C@]2(C)[C@H](C)CC[C@]3(CCC(=O)[C@H]32)[C@@H](C)[C@@H]1O | = | 36.6 |
| C#CCOc1ccc(-c2nnc(Nc3ccc(NC(C)=O)cc3)c3ccccc23)cc1 | < | 1 |
| COC(=O)c1sccc1NC(=O)c1sccc1C | < | 1 |
| Cc1cc(NS(=O)(=O)c2ccc(N(C)C(=O)Cc3ccc(Cl)c(Cl)c3)cc2)no1 | > | 67 |
| FC(F)(F)c1cccc(N2CCN(C(=S)Nc3nccc4ccccc34)CC2)c1 | < | 1 |
| O=c1[nH]c(C2CCN(S(=O)(=O)c3ccc4c(c3)OCCO4)CC2)nc2c1nnn2Cc1c(F)cccc1Cl | < | 1 |
| CNc1cc(-c2nc(Nc3ccc(F)c(F)c3)c3ccccc3n2)ccn1 | < | 1 |
| CCCCCN(CCC12CC3CC(CC(C3)C1)C2)C(=O)NCCCc1ccncc1 | < | 1 |
| O=C(Nc1ccc([S+](=O)([O-])Nc2nccs2)cc1)c1ccccn1 | = | 7.05 |
